- measurementDescription: Antiinflammatory activity in human neutrophils assessed as inhibition of fMLP/cytochalasin B-induced superoxide anion production at 10 ug/mL after 5 mins by spectrophotometer analysis
- Type: functional
- settings: Neutrophil
recordedEndpoint: inhibition at 10 µg/mL (%)
Write it as a number; the unit % goes unstated.

compound | valueUnit | experimentalValue
Cc1ccc2c(c1)OC(C)(O)C2=O (configuration not stated) | % | 0.02
Cc1ccc2c(c1)OC1OC3(CCC21O)c1ccc(C)cc1OC3O (configuration not stated) | % | 4.37
C=C(CO)c1ccc(C)cc1O | % | 2.67
C=C1CC[C@]2(C)CC[C@]3(C)[C@H](CC[C@@H]4[C@@]5(C)CC[C@H](OC(C)=O)C(C)(C)[C@@H]5CC[C@]43C)[C@H]2[C@@H]1C [TARAXASTEROL ACETATE] | % | 0.68
C/C=C(/C)C(=O)OCC(C)(OC)c1ccc(C)cc1O (configuration not stated) | % | 14.7

get_value(item= "C=C(COC(=O)C(C)C)c1ccc(C)cc1O" , readout=inhibition at 10 µg/mL) returns 32.7

get_value(item= "C=C(COC(=O)CC(C)C)c1ccc(C)cc1O" , readout=inhibition at 10 µg/mL) returns 39.6

Reference for the values: ChEMBL document CHEMBL1795259
